Test system: HCT116
Assay: cells
Assay type: cell-based, human
Settings: Table 6; read-out: IC50 HCT116
Classify by IC50. Ranges: lo = under 0.6 nM, mid = from 0.6 nM up to 3 nM, hi = 3 nM and over

Before answering, review these 2 worked examples.
Prompt: Hi there! Could you help me figure out the category for CCC1(NC(=O)c2ccc3c(c2)OCCN3C)CC2CN(CCc3c([nH]c4ccccc34)C(C(=O)OC)(c3cc4c(cc3OC)N(C)C3C(O)(C(=O)OC)C(OC(C)=O)C5(CC)C=CCN6CCC43C65)C2)C1 (centres unmarked) please?
Response: lo

Prompt: Now consider "CC[C@]1(NC(=O)c2ccc3ccsc3c2)C[C@H]2CN(CCc3c([nH]c4ccccc34)[C@@](C(=O)OC)(c3cc4c(cc3OC)N(C)[C@H]3[C@@](O)(C(=O)OC)[C@H](OC(C)=O)[C@]5(CC)C=CCN6CC[C@]43[C@@H]65)C2)C1" and answer again.
Response: mid

Next:
Prompt: For the record "CC[C@]1(NC(=O)c2cc3ccccc3s2)C[C@H]2CN(CCc3c([nH]c4ccccc34)[C@@](C(=O)OC)(c3cc4c(cc3OC)N(C)[C@H]3[C@@](O)(C(=O)OC)[C@H](OC(C)=O)[C@]5(CC)C=CCN6CC[C@]43[C@@H]65)C2)C1" , report the class its IC50 corresponds to.
Response: mid

Prompt: # repeat for CCC1(NC(=O)c2cnc3ccccc3n2)CC2CN(CCc3c([nH]c4ccccc34)C(C(=O)OC)(c3cc4c(cc3OC)N(C)C3C(O)(C(=O)OC)C(OC(C)=O)C5(CC)C=CCN6CCC43C65)C2)C1 (centres unmarked)
Response: hi

Prompt: // repeat for "CC[C@]1(NC(=O)c2ccc3scnc3c2)C[C@H]2CN(CCc3c([nH]c4ccccc34)[C@@](C(=O)OC)(c3cc4c(cc3OC)N(C)[C@H]3[C@@](O)(C(=O)OC)[C@H](OC(C)=O)[C@]5(CC)C=CCN6CC[C@]43[C@@H]65)C2)C1" and report
Response: mid

Prompt: Follow-up item: CCC1(NC(=O)c2ccc3ccoc3c2)CC2CN(CCc3c([nH]c4ccccc34)C(C(=O)OC)(c3cc4c(cc3OC)N(C)C3C(O)(C(=O)OC)C(OC(C)=O)C5(CC)C=CCN6CCC43C65)C2)C1 (centres unmarked)
Response: mid

Prompt: Repeat with CCC1(NC(=O)c2ccc3ccccc3n2)CC2CN(CCc3c([nH]c4ccccc34)C(C(=O)OC)(c3cc4c(cc3OC)N(C)C3C(O)(C(=O)OC)C(OC(C)=O)C5(CC)C=CCN6CCC43C65)C2)C1 (centres unmarked)
Response: hi

Values compiled from patent US10689381B2.
